Non-standard residues stand in square brackets, D forms with d. Residues, ends and D or L forms follow the SMILES beside them. *: point of attachment. DOTA = O=C(O)CN1CCN(CC(=O)O)CCN(CC(=O)*)CCN(CC(=O)O)CC1; Bpa = N[C@@H](Cc1ccc(C(=O)c2ccccc2)cc1)C(=O)O; Ala(4-thiazolyl) = N[C@@H](Cc1cscn1)C(=O)O; azaGly = NNC(=O)O; Sar = CNCC(=O)O
Assay system LHRH binding sites on human ovarian cancer cells (EFO-27); read-out recorded as pEC50.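 Also: Cell-associated radioactivity on confluent EFO-27 monolayers in 96-well plates, measured by microplate scintillation counting.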
In simple prose, pEC50 is minus the logarithm base ten of a concentration in moles per litre.

[[record]]
compound = "CN(C(=O)CN1CCN(CC(=O)O)CCN(CC(=O)O)CCN(CC(=O)O)CC1)[C@H](Cc1ccc2ccccc2c1)C(=O)N[C@@H](CCCNC(=N)N)C(=O)N[C@@H](Cc1c[nH]c2ccccc12)C(=O)N[C@@H](CO)C(=O)N[C@@H](Cc1c[nH]cn1)C(=O)N[C@H](CCCNC(=N)N)C(=O)N[C@@H](Cc1c[nH]c2ccccc12)C(=O)N[C@@H](Cc1ccc(C(=O)c2ccccc2)cc1)C(=O)N1CCC[C@H]1C(=O)NNC(N)=O [BRU-2965]"
data_value = 6.24


For the compound CN(CC(=O)N[C@@H](Cc1c[nH]c2ccccc12)C(=O)N[C@@H](CO)C(=O)N[C@@H](Cc1cscn1)C(=O)N[C@H](CCCNC(=N)N)C(=O)N[C@@H](Cc1c[nH]c2ccccc12)C(=O)N[C@@H](Cc1ccc(C(=O)c2ccccc2)cc1)C(=O)N1CCC[C@H]1C(=O)NNC(N)=O)C(=O)CN1CCN(CC(=O)O)CCN(CC(=O)O)CCN(CC(=O)O)CC1 [compound 2740] ({DOTA}-[Sar]WS[Ala(4-thiazolyl)][dR]W[Bpa]P[azaGly]-NH2) , the measured pEC50 on LHRH binding sites on human ovarian cancer cells (EFO-27) was 5.26
